test-system: T1, human Glucagon-like peptide 2 receptor (GLP-2R) (human, UniProt O95838 1-553)
T1 sequence (looked up): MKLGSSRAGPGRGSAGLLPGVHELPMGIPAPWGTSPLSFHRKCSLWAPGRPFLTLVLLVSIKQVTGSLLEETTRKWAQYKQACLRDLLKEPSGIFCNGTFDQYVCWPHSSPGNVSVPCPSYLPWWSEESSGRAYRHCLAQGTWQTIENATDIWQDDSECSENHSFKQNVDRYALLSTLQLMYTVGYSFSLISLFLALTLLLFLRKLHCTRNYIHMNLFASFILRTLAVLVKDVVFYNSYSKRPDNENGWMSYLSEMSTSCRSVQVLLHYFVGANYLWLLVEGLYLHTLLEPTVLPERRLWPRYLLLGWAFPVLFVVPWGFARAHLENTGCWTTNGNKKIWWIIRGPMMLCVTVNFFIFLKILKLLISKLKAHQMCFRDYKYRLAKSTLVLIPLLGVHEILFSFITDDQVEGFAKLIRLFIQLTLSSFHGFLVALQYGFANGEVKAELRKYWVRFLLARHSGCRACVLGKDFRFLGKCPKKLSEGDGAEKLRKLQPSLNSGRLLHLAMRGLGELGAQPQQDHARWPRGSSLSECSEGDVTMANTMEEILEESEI
protocol-text: cell-based or functional assay
Bridges are numbered along the chain shown (N, C = ends). Where no end group is shown, it is not given here. L1 = C4 bis(bromoacetamide) staple without lipid; L4 = octadecanedioic acid-PEG-ornithine staple; L3 = myristic acid-PEG-PEG-ornithine staple
measurement-label: EC50, CRE-luciferase reporter in HEK293-GLP-2R-CRE cells (pM)
Kindly answer with a numeric value in pM, unit omitted.

Which EC50, CRE-luciferase reporter in HEK293-GLP-2R-CRE cells reading was recorded for the binder HGDGSFSDEMNTILDNCAARDFICWLIQTKITD (linker 17-24 via L3) [mTA 48: GLP-2 (A) and L3] ?
45

Which EC50, CRE-luciferase reporter in HEK293-GLP-2R-CRE cells reading was recorded for the binder HGDGSFSDEMNTILDNCAARDFICWLIQTKITD (linker 17-24 via L4) [mTA 49: GLP-2 (A) and L4] ?
241

Which EC50, CRE-luciferase reporter in HEK293-GLP-2R-CRE cells reading was recorded for the binder HGDGSFSDEMNTILDNCAARDFICWLIQTKITD (linker 17-24 via L1) [mTA 46: GLP-2 (A) and L1] ?
45
